The listing below reports pKi for compounds tested on Nicotinic acetylcholine receptor (Rattus leucopus, UniProt Q62594).
Sequence (Q62594 whole entry): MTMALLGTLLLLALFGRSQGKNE
pKi: −log10 of the molar value.

What is its pKi for Nicotinic acetylcholine receptor (Rattus leucopus, UniProt Q62594)? Entry: CN1[C@@H]2CC[C@H]1CC(OC(=O)[C@H](CO)c1ccccc1)C2 (some centres not stated)
< 5.00

Form field - read-out: pKi; system: Nicotinic acetylcholine receptor (Rattus leucopus, UniProt Q62594); submitted item: C[N+](C)(C)CCCCCC[N+](C)(C)C [Hexamethoniumdibromide]
< 5.00
